Biological target: D(4) dopamine receptor (Homo sapiens)
Assay: Activity at human recombinant D4.4 receptor expressed in HEK293 cells by FLIPR assay
Kindly apply the following: TRUE if EC50 is less than 70 nM, FALSE in every other case.

>>> print(df.to_string())
                                   molecule                                    tgt  classification
0  CO/N=C(/CCN1CCN(c2ccccn2)CC1)c1ccc(Br)cc1  D(4) dopamine receptor (Homo sapiens)           FALSE
1  CO/N=C(/CCN1CCN(c2ccccn2)CC1)c1cccc(Cl)c1  D(4) dopamine receptor (Homo sapiens)           FALSE
2    CO/N=C(\CCN1CCN(c2ccccn2)CC1)c1ccccc1C  D(4) dopamine receptor (Homo sapiens)           FALSE

Turning to the following molecule.
Prompt: For this molecule, is EC50 lower than 70 nM? CCO/N=C1/c2ccccc2CCC1CN1CCN(c2ccccn2)CC1 (configuration not stated)
Response: FALSE

----------
Molecular target: D(4) dopamine receptor (Homo sapiens)
Assay: Activity at human recombinant D4.4 receptor expressed in HEK293 cells by FLIPR assay
Measured Quantity: pEC50
Answers are plain numbers, as −log10 of the molar value.

In [3]: df
Out[3]:
                                   compound                                    tgt  measured_quantity  endpoint_result
0  CO/N=C(\CCN1CCN(c2ccccn2)CC1C)c1ccc(Cl)cc1 (stereo not drawn)  D(4) dopamine receptor (Homo sapiens)              pEC50             6.48

Please supply pEC50 for each of the following items, keeping them in order.
1. CO/N=C(\CCN1CCN(c2ccccn2)CC1)c1cc(F)cc(F)c1
2. O/N=C(\CCCN1CCN(c2ccccn2)CC1)c1ccc(F)cc1

Response:
1: 7.43; 2: 8.02

----------
Target: D(4) dopamine receptor (Homo sapiens, UniProt P21917)
Sequence (P21917 whole entry): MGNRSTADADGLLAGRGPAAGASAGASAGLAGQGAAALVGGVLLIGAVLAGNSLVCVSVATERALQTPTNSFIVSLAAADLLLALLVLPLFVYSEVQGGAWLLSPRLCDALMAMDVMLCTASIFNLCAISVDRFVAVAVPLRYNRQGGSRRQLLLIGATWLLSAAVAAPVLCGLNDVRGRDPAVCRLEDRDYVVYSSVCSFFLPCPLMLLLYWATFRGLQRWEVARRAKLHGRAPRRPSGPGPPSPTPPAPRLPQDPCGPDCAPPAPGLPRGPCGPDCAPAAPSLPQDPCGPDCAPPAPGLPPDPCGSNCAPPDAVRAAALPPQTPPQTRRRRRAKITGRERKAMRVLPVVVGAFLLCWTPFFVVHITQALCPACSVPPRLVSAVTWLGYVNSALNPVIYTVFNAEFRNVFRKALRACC
Assay: Activity at human recombinant D4.4 receptor expressed in HEK293 cells by FLIPR assay
So basically, if EC50 comes in under 40 nM it's T, and if it's 40 nM or more it's F.

                      smiles_representation  classification
0  CO/N=C(\CCN1CCN(c2ccccn2)CC1)c1ccc(Cl)cc1               T
1  O/N=C(/CCN1CCN(c2ccccn2)CC1)c1cc(F)cc(F)c1               T
2  CO/N=C(\CCN1CCN(c2ccccn2)CC1)c1cccc(F)c1               F
3   CO/N=C(\CCN1CCN(c2ccccn2)CC1)c1ccccc1Cl               F

Prompt: Check if EC50 falls below 40 nM for `CO/N=C(/CCN1CCN(c2ccccn2)CC1)c1ccc(C)c(C)c1` .
Response: F

Values compiled from ChEMBL document CHEMBL1145336.
